Form field: Selectivity (one value per entry).
Biological target: Serotonin 2 receptors; 5-HT2a & 5-HT2c (Homo sapiens) (UniProt P28223+P28335)
Sequence (P28223 whole entry, looked up): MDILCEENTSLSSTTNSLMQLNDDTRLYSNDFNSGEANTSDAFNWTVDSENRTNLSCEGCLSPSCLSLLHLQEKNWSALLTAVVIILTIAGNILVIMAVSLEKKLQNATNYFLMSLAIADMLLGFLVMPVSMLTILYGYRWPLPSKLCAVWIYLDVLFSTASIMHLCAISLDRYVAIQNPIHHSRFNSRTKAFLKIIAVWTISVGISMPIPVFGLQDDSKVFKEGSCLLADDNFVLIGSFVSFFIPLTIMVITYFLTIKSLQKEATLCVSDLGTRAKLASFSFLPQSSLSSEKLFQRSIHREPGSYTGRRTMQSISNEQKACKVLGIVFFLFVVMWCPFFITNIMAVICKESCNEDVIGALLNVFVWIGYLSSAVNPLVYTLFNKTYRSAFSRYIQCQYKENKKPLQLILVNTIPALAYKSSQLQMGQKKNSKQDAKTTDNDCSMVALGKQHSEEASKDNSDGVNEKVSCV
Sequence (P28335 whole entry, looked up): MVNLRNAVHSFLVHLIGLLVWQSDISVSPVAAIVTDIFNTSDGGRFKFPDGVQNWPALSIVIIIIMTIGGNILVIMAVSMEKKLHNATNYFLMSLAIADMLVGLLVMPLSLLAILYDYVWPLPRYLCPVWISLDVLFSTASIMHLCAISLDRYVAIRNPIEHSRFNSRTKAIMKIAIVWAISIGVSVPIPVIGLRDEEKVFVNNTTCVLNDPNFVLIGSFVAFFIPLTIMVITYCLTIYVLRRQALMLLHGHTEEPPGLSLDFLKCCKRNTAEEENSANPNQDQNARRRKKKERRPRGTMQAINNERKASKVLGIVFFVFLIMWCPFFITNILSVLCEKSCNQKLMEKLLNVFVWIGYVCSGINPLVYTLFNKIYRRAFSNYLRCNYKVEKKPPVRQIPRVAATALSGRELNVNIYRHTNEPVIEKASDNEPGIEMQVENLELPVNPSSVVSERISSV
Assay: Selectivity at 5-HT 2C receptor compared to serotonin 5-HT 2A receptor
Format: protein assay
API note: the answer field is a bare number with no unit suffix.

[
  {
    "record.smiles": "Cc1cc2c(cc1C(F)(F)F)N(C(=O)Nc1ccc(CCc3ccccn3)nc1)CC2",
    "property.name": "Selectivity",
    "measurement": 50
  },
  {
    "record.smiles": "Cc1cc2c(cc1C(F)(F)F)N(C(=O)Nc1ccc(OCc3ccccn3)nn1)CC2",
    "property.name": "Selectivity",
    "measurement": 50
  },
  {
    "record.smiles": "Cc1cc2c(cc1Cl)N(C(=O)Nc1ccc(OCc3ccncc3)nc1)CC2",
    "property.name": "Selectivity",
    "measurement": 60
  },
  {
    "record.smiles": "Cc1cccc(COc2ccc(NC(=O)N3CCc4cc(C)c(C(F)(F)F)cc43)cn2)n1",
    "property.name": "Selectivity",
    "measurement": 160
  }
]

For the compound shown here, Cc1cc2c(cc1Cl)N(C(=O)Nc1ccc(OCc3nccn3C)nc1)CC2 , give the reported Selectivity.
50

And what about the compound Cc1cc2c(cc1C(F)(F)F)N(C(=O)Nc1ccc(OCc3cncn3C)nc1)CC2 ?
25

Cc1cc2c(cc1C(F)(F)F)N(C(=O)Nc1ccc(COc3ccccn3)nc1)CC2 ?
20

// query: Cc1cc2c(cc1C(F)(F)F)N(C(=O)Nc1ccc(OCCc3ccccn3)nc1)CC2
200

What do we get for O=C(Nc1ccc(OCc2ccccn2)nc1)N1CCc2ccc(C(F)(F)F)cc21 ?
30

Another compound: Cc1cc2c(cc1C(F)(F)F)N(C(=O)Nc1ccc(OCc3ncccc3C)nc1)CC2
40

Now the same for O=C(Nc1ccc(OCc2ccccn2)nc1)N1CCc2c(Cl)cccc21
60

Query Cc1cc2c(cc1C(F)(F)F)N(C(=O)Nc1ccc(OCc3ccccn3)nc1)CC2 next
1300

Cool, now Cc1cc2c(cc1C(F)(F)F)N(C(=O)Nc1cnc(OCc3ccccn3)c(C)c1)CC2
100

Another compound to look at: Cc1cc2c(cc1C(F)(F)F)N(C(=O)Nc1ccc(OCc3cnccn3)nc1)CC2
630

Same question for O=C(Nc1ccc(OCc2ccccn2)nc1)N1CCc2cc(C(F)(F)F)ccc21 please.
800

Also need O=C(Nc1ccc(OCc2ccccn2)nc1)N1CCc2cc(Br)ccc21 , thanks.
160

Then this compound: Cc1cc2c(cc1C(F)(F)F)N(C(=O)Nc1ccc(OCc3ccccn3)cc1)CC2
160

----------
In this section, each of the compounds is paired with its reported Selectivity.
Molecular target: Serotonin receptor (2b and 2c) (Homo sapiens) (UniProt P41595+P28335)
Assay: Selectivity at serotonin 5-HT 2C receptor compared to serotonin 5-HT 2B receptor
Format: protein assay
Respond using a number only.

The following compounds have reported results that may help.
[
  {
    "record.smiles": "Cc1cc2c(cc1C(F)(F)F)N(C(=O)Nc1cnc(OCc3ccccn3)c(C)c1)CC2",
    "system.tested": "Serotonin receptor (2b and 2c) (Homo sapiens) (UniProt P41595+P28335)",
    "Selectivity": 20
  },
  {
    "record.smiles": "Cc1cccc(COc2ccc(NC(=O)N3CCc4cc(C)c(C(F)(F)F)cc43)cn2)n1",
    "system.tested": "Serotonin receptor (2b and 2c) (Homo sapiens) (UniProt P41595+P28335)",
    "Selectivity": 4
  },
  {
    "record.smiles": "O=C(Nc1ccc(OCc2ccccn2)nc1)N1CCc2c(Cl)cccc21",
    "system.tested": "Serotonin receptor (2b and 2c) (Homo sapiens) (UniProt P41595+P28335)",
    "Selectivity": 13
  },
  {
    "record.smiles": "Cc1cc2c(cc1Cl)N(C(=O)Nc1ccc(OCc3nccs3)nc1)CC2",
    "system.tested": "Serotonin receptor (2b and 2c) (Homo sapiens) (UniProt P41595+P28335)",
    "Selectivity": 20
  },
  {
    "record.smiles": "Cc1cc2c(cc1C(F)(F)F)N(C(=O)Nc1ccc(OCc3ccccn3)cc1)CC2",
    "system.tested": "Serotonin receptor (2b and 2c) (Homo sapiens) (UniProt P41595+P28335)",
    "Selectivity": 10
  },
  {
    "record.smiles": "O=C(Nc1ccc(OCc2ccccn2)nc1)N1CCc2ccc(C(F)(F)F)cc21",
    "system.tested": "Serotonin receptor (2b and 2c) (Homo sapiens) (UniProt P41595+P28335)",
    "Selectivity": 30
  },
  {
    "record.smiles": "Cc1cc2c(cc1C(F)(F)F)N(C(=O)Nc1ccc(OCc3ccccn3)nc1)CC2",
    "system.tested": "Serotonin receptor (2b and 2c) (Homo sapiens) (UniProt P41595+P28335)",
    "Selectivity": 60
  },
  {
    "record.smiles": "O=C(Nc1ccc(OCc2ccccn2)nc1)N1CCc2cc(Br)ccc21",
    "system.tested": "Serotonin receptor (2b and 2c) (Homo sapiens) (UniProt P41595+P28335)",
    "Selectivity": 30
  }
]

Which Selectivity reading was recorded for the compound Cc1cc2c(cc1Cl)N(C(=O)Nc1ccc(OCc3ccccn3)nc1)CC2 ?
40

Cc1cc2c(cc1Cl)N(C(=O)Nc1ccc(OCc3cccnc3)nc1)CC2 ?
1
